# ASSAY DETAILS: qHTS Screen of the MIPE 4.0 Collection Against Ewings Sarcoma (EW8) (AID 1259255); note: nearly all actives have a fitted effect of over 35% in size;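 for viability: 100% = DMSO-treated cells and 0% = medium-only wells without cells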
# ASSAY CONDITIONS: EW8 Ewing sarcoma viability, CellTiter-Glo, 48 h; series mostly up to 45.8 µM
Records with an inconclusive call do not appear. Activity calls are given as the source filed them. Calls come from the whole dose curve; as a rule, active = well fitted inhibition curve with a large enough effect; inconclusive = small, poorly fitted or top-dose-only effect; inactive = no such curve, though single readings can be large or run the other way.
Output constraint: value belongs to y (active), n (inactive)

Some entries whose results are on file:
>>> assigned_label("Nc1ccc(-c2ccc3ncc4ccc(=O)n(-c5cccc(C(F)(F)F)c5)c4c3c2)cn1")
"y"
>>> assigned_label("C=C1c2cccc(O)c2C(O)=C2C(=O)[C@@]3(O)C(O)=C(C(N)=O)C(=O)[C@@H](N(C)C)[C@@H]3[C@@H](O)[C@H]12")
"y"
>>> assigned_label("O=C(c1ccc(C=Cc2n[nH]c3ccccc23)cc1)N1CCNCC1")
"y"
>>> assigned_label("CCC(C)SSc1ncc[nH]1 (centres undefined)")
"y"
>>> assigned_label("O=c1[nH]c(=O)n([C@H]2C[C@@H](O)[C@@H](CO)O2)cc1C(F)(F)F")
"y"
>>> assigned_label("CO[C@H]1O[C@@H]2O[C@@]3(C)CC[C@@H]4[C@@H](C)CC[C@@H]([C@H]1C)[C@@]24OO3")
"y"
>>> assigned_label("CCN1C[C@H](C)n2c(c(O)c3c(=O)n(Cc4ccc(F)c(Cl)c4)nc(C(=O)NC)c32)C1=O")
"n"
>>> assigned_label("CC[C@H](NC(=O)[C@H](C)NC)C(=O)N1C[C@@H](O)C[C@H]1Cc1c(-c2[nH]c3cc(F)ccc3c2C[C@H]2C[C@H](O)CN2C(=O)[C@H](CC)NC(=O)[C@H](C)NC)[nH]c2cc(F)ccc12")
"n"

# evaluate next
INPUT: Give the logged outcome of this assay for the following compound: `Cn1cc(-c2ccc3nnc(Sc4ccc5ncccc5c4)n3n2)cn1`
OUTPUT: n

* * *

# Tested on: KB-3-1
# ASSAY DETAILS: Cytotoxic Profiling of Annotated Libraries Using Quantitative High-Throughput Screening (AID 1296008); note: % is set by controls: 0 for no effect and ±100 for the full control effect; nearly all actives have a fitted effect of over 60% in size
# ASSAY CONDITIONS: Five cell lines viability, CellTiter-Glo ATP luminescence, 48-72 h; stronger effect = lower value
Results filed as inconclusive are left out. Active and inactive are the calls of the source. Calls come from the whole dose curve; as a rule, active = well fitted inhibition curve with a large enough effect; inconclusive = small, poorly fitted or top-dose-only effect; inactive = flat fitted curve, though single readings scatter.
max response values by entry

max response reported for this molecule `OC[C@H]1O[C@@H](OCCc2ccc(O)cc2)[C@H](O)[C@@H](O)[C@H]1O` : -11.7% (inactive)

max response reported for this molecule `CN[C@@H](C)[C@H]1[C@H](O)C[C@@]2(C)[C@@H]3CC[C@H]4C(C)(C)[C@@H](NC)CC[C@@]45C[C@@]35CC[C@]12C` : 4.02% (inactive)

max response reported for this molecule `CSc1cccc(Nc2ncc3cc(-c4c(Cl)cccc4Cl)c(=O)n(C)c3n2)c1` : 7.1% (inactive)

* * *

# Test system: OV90
# ASSAY DETAILS: Primary qHTS to identify gynecologic anti-cancer compounds using libraries of approved drugs and bioactive compounds (AID 1345084); note: nearly all actives have a fitted effect of over 55% in size
# ASSAY CONDITIONS: Gynecologic cancer cell panel viability, ATPlite luminescence, 48 h; series mostly up to 57.5 µM
Records with an inconclusive call do not appear. Activity calls are given as the source filed them. Calls come from the whole dose curve; as a rule, active = well fitted cell-killing curve with a large enough effect; inconclusive = small, poorly fitted or top-dose-only effect, or effect the other way; inactive = flat fitted curve, though single readings scatter.
Output constraint: value belongs to active, inactive

Some entries whose results are on file:
>>> assigned_label("NC(=O)c1ccc(N(C(N)=O)c2c(F)cccc2F)nc1-c1ccc(F)cc1F")
"inactive"
>>> assigned_label("NC(=O)c1noc([C@H](CCCC2CCCCC2)CC(=O)NO)n1")
"inactive"
>>> assigned_label("CCCCC(F)(F)[C@@]1(O)CC[C@H]2[C@H](CC(=O)[C@@H]2CCCCCCC(=O)O)O1")
"inactive"

INPUT: Give the logged outcome of this assay for the following compound: `Cc1ccccc1C(=O)c1ccc(Nc2ccc(Br)cc2N)cc1Cl`
OUTPUT: inactive

INPUT: Give the logged outcome of this assay for the following compound: `CCN1C[C@H](C)n2c(c(O)c3c(=O)n(Cc4ccc(F)c(Cl)c4)nc(C(=O)NC)c32)C1=O`
OUTPUT: inactive

INPUT: Give the logged outcome of this assay for the following compound: `O=C(CC12CC3CC(CC(C3)C1)C2)Nc1cccc2nc(NCCNCCO)ccc12`
OUTPUT: inactive

INPUT: Give the logged outcome of this assay for the following compound: `COc1ccc(-c2ccc3ncc4c(c3c2)n(-c2ccc(N3CCNCC3)c(C(F)(F)F)c2)c(=O)n4C)cn1`
OUTPUT: active

INPUT: Give the logged outcome of this assay for the following compound: `O=S(=O)(O)c1ccc2cc(N=Nc3cc(S(=O)(=O)O)c4cccnc4c3O)ccc2c1`
OUTPUT: inactive

INPUT: Give the logged outcome of this assay for the following compound: CC1=C(C(=O)Nc2cc3cn[nH]c3cc2F)C(c2ccc(C(F)(F)F)cc2)CC(=O)N1 (centres undefined)
OUTPUT: inactive

INPUT: Give the logged outcome of this assay for the following compound: `O=C(O)CCNc1cc(N2CCc3ccccc3CC2)nc(-c2ccccn2)n1`
OUTPUT: inactive

INPUT: Give the logged outcome of this assay for the following compound: `C[C@@H](NC(=O)c1ncnc(N)c1Cl)c1ncc(C(=O)Nc2cc(C(F)(F)F)c(Cl)cn2)s1`
OUTPUT: active

INPUT: Give the logged outcome of this assay for the following compound: `CN1CCN(c2cccc(Nc3nc4c(-c5ccc(S(C)(=O)=O)cc5)cccn4n3)c2)CC1`
OUTPUT: inactive

INPUT: Give the logged outcome of this assay for the following compound: `O=C(Nc1cccc(C(F)(F)F)c1)Nc1cc(S(=O)(=O)NC2CC2)ccc1-c1ccsc1`
OUTPUT: inactive

INPUT: Give the logged outcome of this assay for the following compound: `Cc1nc(C(=O)NCC(=O)O)c(O)c2ccc(Oc3ccccc3)cc12`
OUTPUT: inactive
